- APPLIED CONDITIONS: female rats, IN, 1.1 mg/kg equivalent of Testosterone, 1h post dose

{"MOLECULE": "CC(=O)N[C@@H](CCC(=O)O[C@H]1CC[C@H]2[C@@H]3CCC4=CC(=O)CC[C@]4(C)[C@H]3CC[C@]12C)C(=O)O [Prodrug P13]", "levels of testosterone release": "low levels"}
{"MOLECULE": "CC(C)[C@H](N)C(=O)N[C@@H](C(=O)O[C@H]1CC[C@H]2[C@@H]3CCC4=CC(=O)CC[C@]4(C)[C@H]3CC[C@]12C)C(C)C [Prodrug P4]", "levels of testosterone release": "low levels"}
{"MOLECULE": "C[C@]12CC[C@H]3[C@@H](CCC4=CC(=O)CC[C@@]43C)[C@@H]1CC[C@@H]2OC(=O)CN1CCOCC1 [Prodrug P6]", "levels of testosterone release": "low levels"}
